TARGET_OR_SYSTEM: GalNAc-T4 Lectin Flexible Loop (LFL) deletion/mutant (P463DNNP467 to GGG) (Homo sapiens, UniProt Q8N4A0, DEL463-464/N465G/N466G/P467G)
PROTOCOL_DETAILS: Transferase assay and kinetics, LFL mutant
Format: biochemical
MEASUREMENT_CONDITIONS: LFL deletion/mutant; Sephadex G10 chromatography (Figure S8)
OBSERVED_PROPERTY: UDP-GalNAc Hydrolysis %

// known answers, use as guide
AGAGT*TPGPGAGAT*GA [compound 5] ... ~50%
GAGAGAGTTPGPG [compound 1] ... ~90%

Task: Need UDP-GalNAc Hydrolysis % of GAGAGAGT*TPGPG [compound 4] , thanks.
Output: ~50%

Task: Now consider AGAGTTPGPGAGAT*GA [compound 2] and answer again.
Output: ~90%
